Listed here: items and their measured viability at 100 µM.
# System: HeLa
# testDetails: Antiproliferative activity against human HeLa cells assessed as cell viability at 100 uM by MTT assay
# Format: functional
# statedConditions: read-out: Activity
Param answer (str): number followed by unit.

Examples from the recorded data:
> print(dat)
                                 smilesrepr  result
1  Cc1ccc(N2CCn3c(COc4ccc(Cl)cc4C)nnc32)cc1   75.6%
2  Clc1ccc(N2CCn3c(COc4ccc(Cl)cc4Cl)nnc32)cc1   56.3%

Alright, here's another compound for you.
Bench note: what viability at 100 µM did COc1ccc(N2CCn3c(COc4ccc(Cl)cc4)nnc32)cc1 show?
68.9%

----------
Overview of reported logKw across a group of compounds:
# testDetails: Lipophilicity, log kw in acetonitrile aqueous system at pH 3.5
# Assay type: physicochemical

What value of measured logKw is listed for Clc1ccc(N2CCn3c(COc4ccc(Cl)cc4Cl)nnc32)cc1 ?
3.75

What value of logKw has been reported for the following compound? Cc1ccc(N2CCn3c(COc4ccc(Cl)cc4C)nnc32)cc1
1

Suppose we examine the compound Cc1cc(Cl)ccc1OCc1nnc2n1CCN2c1ccccc1 ; what logKw value has been reported?
1.36

Consider the compound shown here: Clc1ccc(N2CCn3cnnc32)cc1Cl What is its recorded logKw?
2.11
